For each of the molecules below, state its Binding.
target: calstabin2 (FKBP12.6) binding to PKA-phosphorylated cardiac sarcoplasmic reticulum (CSR) (Homo sapiens); construct: from tissue; experiment: Calstabin 2 (FKBP12.6) Assay; details: 250 nM calstabin2, approximately 20 μg PKA-phosphorylated CSR, room temperature 30 minutes, immunoblot detection of calstabin2 binding
Sequence (Q92736 whole entry): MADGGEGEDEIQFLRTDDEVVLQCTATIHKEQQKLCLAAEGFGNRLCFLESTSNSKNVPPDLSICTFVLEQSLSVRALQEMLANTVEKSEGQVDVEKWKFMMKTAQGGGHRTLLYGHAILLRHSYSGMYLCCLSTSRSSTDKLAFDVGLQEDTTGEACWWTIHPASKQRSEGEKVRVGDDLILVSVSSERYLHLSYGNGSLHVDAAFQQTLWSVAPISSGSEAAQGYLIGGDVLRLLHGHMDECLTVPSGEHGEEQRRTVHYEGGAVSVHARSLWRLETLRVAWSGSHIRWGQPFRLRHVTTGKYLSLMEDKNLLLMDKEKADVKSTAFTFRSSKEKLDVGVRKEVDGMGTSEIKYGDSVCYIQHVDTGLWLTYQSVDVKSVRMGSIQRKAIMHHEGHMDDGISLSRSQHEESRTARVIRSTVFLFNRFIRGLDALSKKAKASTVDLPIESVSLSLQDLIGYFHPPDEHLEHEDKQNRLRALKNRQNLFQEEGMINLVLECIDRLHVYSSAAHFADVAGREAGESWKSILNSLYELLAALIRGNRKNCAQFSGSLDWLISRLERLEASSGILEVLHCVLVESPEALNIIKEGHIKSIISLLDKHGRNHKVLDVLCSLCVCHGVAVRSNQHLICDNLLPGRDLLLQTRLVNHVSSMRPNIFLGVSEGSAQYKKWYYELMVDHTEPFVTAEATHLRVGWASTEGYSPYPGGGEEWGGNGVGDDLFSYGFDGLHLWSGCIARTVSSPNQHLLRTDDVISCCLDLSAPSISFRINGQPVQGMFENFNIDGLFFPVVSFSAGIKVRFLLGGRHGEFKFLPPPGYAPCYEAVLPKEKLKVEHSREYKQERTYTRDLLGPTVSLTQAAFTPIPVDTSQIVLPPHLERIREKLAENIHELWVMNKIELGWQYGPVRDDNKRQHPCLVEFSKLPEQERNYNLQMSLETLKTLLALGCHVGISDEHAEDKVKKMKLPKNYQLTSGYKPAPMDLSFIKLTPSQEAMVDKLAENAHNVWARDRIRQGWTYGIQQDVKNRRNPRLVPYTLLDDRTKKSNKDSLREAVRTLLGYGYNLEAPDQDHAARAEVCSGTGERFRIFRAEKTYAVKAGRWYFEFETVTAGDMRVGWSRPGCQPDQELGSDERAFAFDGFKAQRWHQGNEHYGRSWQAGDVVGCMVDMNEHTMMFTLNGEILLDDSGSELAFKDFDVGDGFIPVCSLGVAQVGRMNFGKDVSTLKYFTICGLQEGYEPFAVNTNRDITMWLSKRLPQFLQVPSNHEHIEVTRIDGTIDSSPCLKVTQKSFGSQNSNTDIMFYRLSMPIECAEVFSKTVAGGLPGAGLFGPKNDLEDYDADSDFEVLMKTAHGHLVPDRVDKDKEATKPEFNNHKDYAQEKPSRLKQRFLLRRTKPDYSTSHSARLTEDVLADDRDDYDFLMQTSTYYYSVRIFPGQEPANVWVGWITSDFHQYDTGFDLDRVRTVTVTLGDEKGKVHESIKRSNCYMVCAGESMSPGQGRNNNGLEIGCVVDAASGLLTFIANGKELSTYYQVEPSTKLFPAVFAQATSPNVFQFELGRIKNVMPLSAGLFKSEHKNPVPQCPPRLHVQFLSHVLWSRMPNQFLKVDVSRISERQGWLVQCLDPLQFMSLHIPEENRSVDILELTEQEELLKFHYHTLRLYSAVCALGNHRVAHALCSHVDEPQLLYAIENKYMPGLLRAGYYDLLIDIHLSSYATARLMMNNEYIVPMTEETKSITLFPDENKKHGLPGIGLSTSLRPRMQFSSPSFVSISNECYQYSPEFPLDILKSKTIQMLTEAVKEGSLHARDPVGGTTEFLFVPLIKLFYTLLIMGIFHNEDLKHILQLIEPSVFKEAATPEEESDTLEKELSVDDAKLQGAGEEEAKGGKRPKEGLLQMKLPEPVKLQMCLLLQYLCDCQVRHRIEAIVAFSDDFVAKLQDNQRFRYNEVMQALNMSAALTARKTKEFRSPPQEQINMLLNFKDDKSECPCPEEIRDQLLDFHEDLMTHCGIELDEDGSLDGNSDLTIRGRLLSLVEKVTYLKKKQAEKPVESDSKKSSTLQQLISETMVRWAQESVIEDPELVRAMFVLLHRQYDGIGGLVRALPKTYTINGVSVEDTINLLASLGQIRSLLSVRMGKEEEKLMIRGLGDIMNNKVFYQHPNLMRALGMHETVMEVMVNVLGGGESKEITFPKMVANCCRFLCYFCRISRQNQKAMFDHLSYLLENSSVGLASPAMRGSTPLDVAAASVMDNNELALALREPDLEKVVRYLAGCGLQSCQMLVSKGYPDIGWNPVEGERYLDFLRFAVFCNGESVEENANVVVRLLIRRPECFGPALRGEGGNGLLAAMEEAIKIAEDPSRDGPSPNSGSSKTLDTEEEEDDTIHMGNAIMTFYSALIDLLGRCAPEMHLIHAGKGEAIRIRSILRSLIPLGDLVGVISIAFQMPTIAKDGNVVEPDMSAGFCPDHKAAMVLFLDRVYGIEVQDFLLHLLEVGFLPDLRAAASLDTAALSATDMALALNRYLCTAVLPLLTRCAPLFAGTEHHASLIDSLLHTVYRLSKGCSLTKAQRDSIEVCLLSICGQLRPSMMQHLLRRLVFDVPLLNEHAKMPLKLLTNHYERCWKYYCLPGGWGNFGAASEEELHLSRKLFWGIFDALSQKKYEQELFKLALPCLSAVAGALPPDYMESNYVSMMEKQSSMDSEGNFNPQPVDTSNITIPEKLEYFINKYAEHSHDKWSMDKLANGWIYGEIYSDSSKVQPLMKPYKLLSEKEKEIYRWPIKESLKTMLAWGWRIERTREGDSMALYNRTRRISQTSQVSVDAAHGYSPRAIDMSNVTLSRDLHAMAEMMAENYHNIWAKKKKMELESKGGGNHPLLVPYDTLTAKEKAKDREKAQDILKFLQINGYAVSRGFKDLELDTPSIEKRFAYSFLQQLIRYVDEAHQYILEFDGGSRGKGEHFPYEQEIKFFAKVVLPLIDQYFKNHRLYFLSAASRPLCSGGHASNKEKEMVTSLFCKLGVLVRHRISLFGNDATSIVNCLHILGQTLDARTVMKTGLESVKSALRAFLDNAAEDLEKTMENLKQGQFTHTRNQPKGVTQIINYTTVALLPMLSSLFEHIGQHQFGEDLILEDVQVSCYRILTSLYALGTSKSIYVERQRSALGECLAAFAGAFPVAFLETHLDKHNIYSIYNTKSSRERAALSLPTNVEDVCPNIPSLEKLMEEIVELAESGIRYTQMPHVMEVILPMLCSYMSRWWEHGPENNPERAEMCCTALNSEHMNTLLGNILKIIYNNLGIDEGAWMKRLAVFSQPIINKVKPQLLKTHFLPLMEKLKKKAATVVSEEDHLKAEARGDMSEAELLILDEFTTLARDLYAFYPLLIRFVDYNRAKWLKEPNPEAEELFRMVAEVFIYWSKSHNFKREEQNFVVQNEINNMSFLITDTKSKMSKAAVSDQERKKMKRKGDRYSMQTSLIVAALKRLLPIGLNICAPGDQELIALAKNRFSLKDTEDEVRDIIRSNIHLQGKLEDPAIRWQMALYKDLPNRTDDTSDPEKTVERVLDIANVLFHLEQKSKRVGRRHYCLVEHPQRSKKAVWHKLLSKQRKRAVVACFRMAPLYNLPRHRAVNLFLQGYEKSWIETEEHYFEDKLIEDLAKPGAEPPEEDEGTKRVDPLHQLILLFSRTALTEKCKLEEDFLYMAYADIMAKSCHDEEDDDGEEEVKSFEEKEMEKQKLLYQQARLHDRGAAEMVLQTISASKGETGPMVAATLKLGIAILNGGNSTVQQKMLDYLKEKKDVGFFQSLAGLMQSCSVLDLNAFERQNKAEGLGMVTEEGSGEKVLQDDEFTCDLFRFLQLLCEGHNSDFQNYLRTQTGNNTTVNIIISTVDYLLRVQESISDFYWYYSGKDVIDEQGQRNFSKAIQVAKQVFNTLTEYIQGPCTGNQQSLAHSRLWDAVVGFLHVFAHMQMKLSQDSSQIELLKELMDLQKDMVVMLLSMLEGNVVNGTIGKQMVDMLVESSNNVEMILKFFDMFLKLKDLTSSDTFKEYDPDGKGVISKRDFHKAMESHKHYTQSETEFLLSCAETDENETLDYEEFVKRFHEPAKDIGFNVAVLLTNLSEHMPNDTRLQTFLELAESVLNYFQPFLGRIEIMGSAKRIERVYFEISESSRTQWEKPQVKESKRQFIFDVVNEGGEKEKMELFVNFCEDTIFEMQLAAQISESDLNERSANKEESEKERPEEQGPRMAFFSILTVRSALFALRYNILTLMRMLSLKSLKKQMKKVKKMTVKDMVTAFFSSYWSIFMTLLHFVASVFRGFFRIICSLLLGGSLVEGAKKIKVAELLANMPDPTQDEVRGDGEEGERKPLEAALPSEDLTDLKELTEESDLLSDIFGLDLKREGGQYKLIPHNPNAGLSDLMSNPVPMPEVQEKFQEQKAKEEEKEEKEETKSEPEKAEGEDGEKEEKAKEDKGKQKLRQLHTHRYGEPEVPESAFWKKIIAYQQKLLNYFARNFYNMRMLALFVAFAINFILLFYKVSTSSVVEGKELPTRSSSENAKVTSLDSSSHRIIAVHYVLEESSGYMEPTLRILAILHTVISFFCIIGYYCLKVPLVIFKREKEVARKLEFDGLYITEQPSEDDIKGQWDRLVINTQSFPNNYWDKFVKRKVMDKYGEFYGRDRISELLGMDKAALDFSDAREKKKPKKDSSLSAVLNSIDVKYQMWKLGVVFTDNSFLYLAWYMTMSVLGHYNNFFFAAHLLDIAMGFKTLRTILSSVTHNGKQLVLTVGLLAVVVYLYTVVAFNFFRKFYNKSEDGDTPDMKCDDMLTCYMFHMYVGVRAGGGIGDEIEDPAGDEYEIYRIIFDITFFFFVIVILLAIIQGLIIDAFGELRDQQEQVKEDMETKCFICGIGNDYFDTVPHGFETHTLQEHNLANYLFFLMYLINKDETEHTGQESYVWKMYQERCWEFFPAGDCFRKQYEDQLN
Sequence (P68106 whole entry partner): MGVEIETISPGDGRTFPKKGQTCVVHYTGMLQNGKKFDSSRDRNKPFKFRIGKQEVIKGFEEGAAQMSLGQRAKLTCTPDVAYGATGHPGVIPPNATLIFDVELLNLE
Give your result as the value with the unit written after it.

Query: # query: Binding of entry COc1ccc2c(c1)C/C(=C\CCN1CCC(Cc3ccccc3)CC1)CCS2
Reply: 1000 nM

Query: # query: Binding of entry COc1ccc2c(c1)CN(C(=O)CCN1CCC(Cc3ccccc3)CC1)C[C@@H](C)S2
Reply: 100 nM

Query: # query: Binding of entry COc1cccc(OC)c1CN(C)C(=O)CCN1CCC(Cc2ccccc2)CC1
Reply: 1000 nM

Query: # query: Binding of entry COc1ccc2c(c1)C/C(=C/CCN1CCC(Cc3ccccc3)CC1)CCS2
Reply: 100 nM

Query: # query: Binding of entry COc1ccc2c(c1)CN(C(=O)CCN1CCC(Cc3ccccc3)CC1)[C@H](C)[C@H](C)S2
Reply: 1000 nM

Query: # query: Binding of entry COc1ccc2c(c1)CN(C(=O)CCN1CCC(Cc3ccccc3)CC1)[C@@H](C)[C@@H](C)S2
Reply: 100 nM

Query: # query: Binding of entry COc1ccc2c(c1)CN(C(=O)CCN1CCC(Cc3ccccc3)CC1)C(C)CS2 (stereo not drawn)
Reply: 100 nM

Query: # query: Binding of entry COc1ccc2c(c1)CN(C(=O)CCN1CCC(Cc3ccccc3)CC1)C[C@@H](C)O2
Reply: 100 nM

Query: # query: Binding of entry COc1ccc2c(c1)CN(C(=O)CCN1CCC(Cc3ccccc3)CC1)C[C@H](C)O2
Reply: 100 nM
